Attribution: PubChem BioAssay

Test: modulators of HCV replicon luciferase signal, primary screen, HCV replication inhibitor project, Huh7 cells, luciferase reporter (AID 1109);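 also: huh7 hepatoma cells harbouring a luciferase neomycin HCV replicon reporter; luciferase luminescence as measure of HCV replicon replication; test concentration not given here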
Conditions: 48 h, higher = more signal
# label = Criterion met if z-score >= -2 else Criterion not met

## Input Exam item: decide whether the reported z-score for C=C(CCCC)C(=O)CC[C@@H](OC(C)=O)c1cccc(OCCO)c1 is at least -2.
## Output Criterion not met

## Input What about c1ccc(C2NCCc3c2[nH]c2ccccc32)cc1 (stereo not given) ?
## Output Criterion not met

## Input And Cc1cc2c(nc1C)CCCN2CC(O)CN1CCN(C)CC1 (stereo not given) ?
## Output Criterion met

## Input Record: CCOc1ccc(N2C(=O)/C(=C/C=C/c3ccccc3OC)S(=O)(=O)C2c2cccc([N+](=O)[O-])c2)cc1 (stereo not given)
## Output Criterion not met
